Measured values drawn from the supplement of paper PMC11451515 for this set.

system: NOMO1; experiment: cell viability relative to DMSO control; higher = less cytotoxic; conditions: HPLM + 10% dialyzed FBS; 48 h; 46.1 µM
quantityName: cell viability (%)
Numbers only, in %.

- lineNotation: "OC(=O)\\C1=C\\N(C2CC2)C3=CC(=C(F)C=C3C1=O)N4CCNCC4"
  cell viability [%]: 22.5
- lineNotation: "CCCCCNC(=N)N/N=C/c1c[nH]c2ccc(OC)cc12"
  cell viability [%]: 48.8
- lineNotation: "COc1cc2c(cc1OC)[C@@H]1Cc3ccc(OC)c(OC)c3CN1CC2"
  cell viability [%]: 31.2

Next:
Please report the recorded cell viability for CO[C@@H](C(=O)N1Cc2[nH]nc(NC(=O)c3ccc(N4CCN(C)CC4)cc3)c2C1)c1ccccc1 . 71.7
